# experimental.details: soluble on expression in E. coli; label from the status in PepcDB or PDB records
quantity.name: soluble on expression in E. coli

MENEKIWIKELKEKRLAYGVSQNKLAVASHITRPYLSDIETGKAVPTQQVKEDLLNALERFNPDNPLEMLFDYVRIRFPTNDVAQIIGEVLRLNMDYMLHEDFGYYSYPEHYRFGDIVVLVSHDVSKGVLLELKGKGCRQFENFLLAQHRSWYDFFQDCMEHKGIFKRLDLAINDKTGILNIPDLAKKCKQEECISVFRSFKNYRSGELVHRDEKPYMGNTLYIGSLKSEVYFCIYEKDYEQYVKNDVPLEDAEVKNRFEIRLKNDRATQAMKDLLAHQQAEKTAFEIINRYIRFADKDDTKRRSDWKTNERWEWFIGKNRGALRLTTQPEPYSFERTLNWLHHQVAPTLKIASILDVLNGTTIISTMIQEAKLTEKHEKLIEQQHLAMEDLIT    not soluble
MGSDKIHHHHHHMPVLPVSSYKGSGPLANGHVQTMFPVLFRPMPVVEYHRQRLETPDGDFLDVDFSSAAAAAQSESIAVISHGLEGHSRRRYVQGMARVLNARGWDAAAWNFRGCSGQPNRLPRMYHSGDTQDLHTVVTACAQKGYRRILLVGVSMGGNQILKYLGEDPDRVDSRVCGAVVFSVPCDLVGAAQVLGRPQNSVYMRYFLRTLRQKIKAKHAMYPDTIQMDGLDSIRTFAEFDDRYTAPLHGFSGALDYWTKSSCRQFLSSVRVPALLVNALNDPFLSASCYPYREARQSGSLFFETTVTGGHVGFVQFNRQNIYWSEERLLSFMDEQGL    not soluble
SRRRPLSCDAASQAGSNYPRCWNCGGPWGPGREDRFFCPQCRALQAPDPTRDYFSLMDCNRSFRVDTAKLQHRYQQLQRLVHPDFFSQRSQTEKDFSEKHSTLVNDAYKTLLAPLSRGLYLLKLHGIEIPERTDYEMDRQFLIEIMEINEKLAEAESEAAMKEIESIVKAKQKEFTDNVSSAFEQDDFEEAKEILTKMRYFSNIEEKIKLKKIPL    soluble
LEGENSKQKVQMSIHQFTNICFKKCVESVNDSNLSSQEEQCLSNCVNRFLDTNIRIVNGLQNTR    soluble
MKPVSGSFSGYHPMATVSEQPVAKPRASESPQSESIEERPACLAPVAGAGQPLPGASSSLSAYLLLRRLDHRPVSQEGINALTPADEAVVEARNALPFGRGNVGVDAQKTDLESSIRTRSVMRLTRDAEAAGHTPMRGVDADMNWNVLVAMSGRIFGAGNCREHARIASFAYGGLAQESGRSSEEKIHLATKAGVDHVWVETDHPDADSSPMVIDPWANGSAILAEDSRFAKDRSAVTRTDTFDLSLAAEAGQIAKATAEEALAHTQGRLQQRLASERPDAVPLESGRYREEVSVLDDTFARRVGQKVNTADPRGMLNVELEAVGVAMSLGGEGVKPLTQEASQIVEKAKKFASPGGMPRDA    not soluble
MAFKPVSITGTRRQAGQALGKLARPLMATYLEQSTVWAALRPWRGHAYLEALAHEASQALPEIWDELEGLAEGLRMPLVDILLWNCRGDLLHKTSDGCTSIAWRGDEDARWIAHNEDGDPFLYGRCHMVDVRTDDAPGYISFYYPGSLPGHTFGANRAGLVQTINNVRIRQRHAGVPRMLLARAVLDCATLDDALAVLRDHPRAGGFHHTLGAAGEPRLYSVEASPAACSIGEVARGNGHANHLVHPGSEAIGQIVTDSSRSRQRHIENLMDHWQPPVDGARLVATLLDREGELPILRCGADDPDEENTLATALFEMRDGGLTLQVHDRRDQPALRVTVCPAALEHHHHHH    not soluble
MTLKFSVERLVDSEKESEEADVEEQNNLKKLEEDEEDDELCEKSGKNEPLSQTLSYFDVLLPHVQMACSNPFISGIGASGSGDQNLNTGAGGSVWQHPWLELLQSTTAAQFGDVTAGLFLQPLRKNKRIRTAFSASQLIQLEKAFEGNHYVVGNERKQLAAKLSLTETQVKVWFQNRRTKHKRVRLEGSDPNAPMSNDEDDEDDKKSVS    not soluble
SHRKFVVQLFAEEWGQYVDLPKGFAVSERCKVRLVPLQIQLTTLGNLTPSSTVFFCCDMQERFRPAIKYFGDIISVGQRLLQGARILGIPVIVTEQYPKGLGSTVQEIDLTGVKLVLPKTKFSMVLPEVEAALAEIPGVRSVVLFGVETHVCIQQTALELVGRGVEVHIVADATSSRSMMDRMFALERLARTGIIVTTSEAVLLQLVADKDHPKFKEIQNLIKASAPESGLLSKV    soluble
MAHHHHHHMHVSSAAYTRAYEWQRALNSCTGDFSSSLARCLPLRALCRRPNNVPRTLTHTSKHPHPLLLSHPRLPLSHAARTRAPPPSRCSRSTLMSVPYEEKAFPPL    not soluble
SAPALLTAAQRTMLAQVGACNSHLTSDENMAINELRLHKPRLPKDTWFFTDPNKDPDDVVTYTLGKQLQAEGFVHITDVVATLGDAEVRSQRAEMAKGVFNKLGLHDVHVSRGRDYAMNSLQSKEHAKFLLEGHALRAGPGEIHRDSLQDMSRRLARAPHGVGIVVIAGMSDINALITTCPDMVRERVDDITIMGGVEPLKDADGFVQPDARAYNNATDMDAARSLYRKAQELGIPLRIVTKEAAYKTAVSPSFYEGIAGSGHPVGHYLRDVQKSALKGLWEGIQAGLLPGLDDSWFFRTFMPNAQIEAAQLDKNKESSFEDIWPKVTKLNLYDPLTLLASVPGAAKLLFKPKAIHTEGFGVVEQVGPDDVTHPEKAKLLMSALAKSALVQSTVAPD    soluble
SNRFIAVFSDITRHKQTEEDLLRSEQHYRLLHETMLQGVVYQDASGKIISMNPAAERILGKTPAEFLGSSSVGEEYLTIREDGSMFPGLEHPAMVSLRTGQKVQGVVMGVYNPRENFYRWININAVPIFRTGEDRPFQVYTLFDDI    not soluble

* * *

# experimental.details: soluble on expression in E. coli; label from the status in PepcDB or PDB records
quantity.name: soluble on expression in E. coli

MASFVTSKRDFRARAHSNPLNDAEFLVPEDPLRFDWSPFIPDVGSHPIDYVDLGCGYGGLLCELSIAFPNKYMLGMEIRDRVASYCVTKLEELRRLNSKGYRNIGFIRTNCMKFLPFYFPPSSVEKFFICFPDPHFKKKKHRQRLVSLRFLSEAAYCLRPGGMIYIVTDVEELFAWMTNLFAQHPLFLTMDKELVKQQDVLLPYLLNHTDEAQRMKRRGQDTPYWNVFQRKTVFC    not soluble
MAHHHHHHMGKLQAPCSPTVCGYPLPYPRSLSHNLFNVIQDTRRKGKTNTEQSELKNEGDPLTLSPIVPKVDTSPATESKGRRREEKPLAHEGQLLKHKLDVWRDLFLASAAQQLAASGHPRSRRDDAGNVFYSNISCYLKEGCIVKSEDTDLRTGPRDHLRVQGAYLSHLAPEAFANLHVTLDGNTFVLRNVQRTSPTIKQISEELCEERGIRLLPTAMQKKVAYLVSQVSTSTKERAGTISGKKGLATSKWKHTNSLQTCKHSLNMELPEVTYRSRVLSTIREGAYGSPFQKGCKM    not soluble
TTGNEPPVTQIVDKHRIALALGGGAARGWAHIGVLRALDEAGVKIGMIAGTSIGALVGGCYLAGKLDELEEFARSLTMRRIAGLLDLTIGGGGLFGGMRLTKRMQEHLEGLRVENLEHPFIAVATELRTGHEVWIHQGDLVTALRSSYALPGIFEPVQCNGRTLIDGALVNPVPVSVCRAYEQALVVAVNLNYDLFGRSA    not soluble

* * *

# experimental.details: soluble on expression in E. coli; label from the status in PepcDB or PDB records
quantity.name: soluble on expression in E. coli

MRLLILGGTGDAAELSAKVATIPGIEAIASLAGRTREPSLPSGNVRVGGFGGAAGLADYLRQMQVDVLIDATHPFAAQISENAALAADEVEIPRLMLIRPPWVKVAGDRWIEVDTTSAAAAILKNQAKRVFLTVGRQELSAFAHLHDIWFLMRMIDPPAADALVPPGVILCDRGPFTLPQERDILIQHNIDTLVSKNSGGDATYAKIIAARELGVQVVMVNRPVVPACEQVTDADAAVAWLLEK    not soluble
MKHVKKEKAEKLEKERQRHIGKPLLGGPFSLTTHTGERKTDKDYLGQWLLIYFGFTHCPDVCPEELEKMIQVVDEIDSITTLPDLTPLFISIDPERDTKEAIANYVKEFSPKLVGLTGTREEVDQVARAYRVYYSPGPKDEDEDYIVDHTIIMYLIGPDGEFLDYFGQNKRKGEIAASIATHMRPYRKKS    soluble
MGSDKIHHHHHHMNILIVYGTTEGQTGKIAARTATHLRERGHQVELRDSAALASDLKLGHFDAFVIAASVHQEHHQETVTNFVFAHHEALSTKPSALISVSLSAALGDQKKDAQKYVDRFVSVTDWQPSMTLLLGGALRFNKYDYFQEQFVKFVVMKSGDPSPERDHEFTDWNALANFADRFLETAG    not soluble
MAAISFPLLQLPNFALNKTLKLMCVVPHLYLSIISKKAKRCITAVNEKPLYVHINKASSISLRLTTKSFQNFEFIITPGQSDLEIRKYITTRPLFNSYLSTNQCVLGVTAKQWIELIAQVFIQDKGVLLKLQNSNKFNIKEIQYYTRELNIVRLKIESSELQDTQLSKMFPKVEELTVTRDKIPSSILSRNFKKLRFDDIKVSLDNILISNCSSFLIFLQTLPDKDLNRFMKLWIKESNPNLKTFEVCFPDYEQTGLDGTILFKGIRCIDSIKHGEVTRKKFKRHDGTTALVSVFASTSFHFCMTVVG    not soluble
MGSDKIHHHHHHMLPPLDSDLMRGFLAVVETGSLTRAGHRLGRTQSAISMQIRKLEDSLGQSVFVREPRGVRLTERGKQLLPYAQRVVGLLDEAAIALREKPLSGPVRVGVPDEYIQGVLPAVLSAFSQRHPETQVTLRCDFSAPQLEALNSDKIDLAVIYEGYSTDEVEVLAVDPTVWVTSISHAQHLHRPLPISIYFSSDWCRDFALHSLEQIGIPYFAAFECDTSGGMRSAVSNGIAVAPLARSSIPPGCRELTAEDGFMGVDNARVVLRRNPAGSSTAIEAMVATLREAFWPLTKNGGL    not soluble
MTKVTEHLEKQLAENRVKQEEARRAREEEKQRSDNAFNNAERAFERKLEEQRKENQENQKELELEMDNSRLKHEMLYREKQKEHEDVMGAMRNASSAERSAAANMHEKELNLLRKTHESEMKNCEVQMEAIRQKGEREVRDVEDQMAKLHLERGAELDKHHKKMLKMVEKSHEDCTREKVKQHALKMLEMKNEGQRKAIEHKIVMEKLEQARGMSQRLAVNEANREVYRLFMAIMEPVNEARSNLGDIKALCDNNGEDYEDSDTACAEYYSSGIGNSRSIFDIRTNAFRDFVLNQPNCDHELVIACQTAINSMKKPMESTTIRSACTTLPRFMGEQRHLRITAILQNIDDLTSTLEAISDDVRLNFVSWKQLEIVEAVVEQKTIEKE    soluble
MVNQQEEINLSVALVTRNRPDSLERCLKSLRDQKVQPFEVVVSDDSDDLYKSSTKEIAQKWGCRYIDGPKRGLYANRNYVALACYGTHIRTMDDDHEFPEQHIEVCLNAIQSDPSSIWIIGEYSPTSSIENAPHPCPGQLHPRGFSFYPKDTQNCWAIADGASIYPKKIFASGLRFVEYYKFGASYLEWGSRLYYLSYRIRHLDSTYIIHHFNPKARSFSDQEMDQSSRFFAMLCHSFLYQSTFKNKCLFSYEILKQFILDPKLTIKCIINSWSNFELFSRSFCALEHHHHHH    not soluble
MSAKLISVTKPVVEGVNTAEELIAYAARVSNPENQINNKTASGLLKYCIRHKHWSIFETAFMTLELKTSRGIAAQVIRHRSFHFQEFSQRYASVMETPPPHQARFQDHKNRQNSLDTVPEDDQTWWATEQEKLYAQSMELYNKALEKGIAKECARFILPLSTPTTIYMSGTIRDWIHYIELRTSNGTQREHIDLANACKEIFIKEFPSIAKALDWVH    soluble
GCGVEEKTEVQLLKEMPKPKAMTIDPSLSQKEATEMVHAAQRFYAFWDTGKEELIPQTVTENFFDHTLPKGRPQGTEGLKFAAQNFRKIVPNIHCEIEDLLVVGDKVTARLSFTGTHNDKKIDFFAIDILHVKDGKITEDWHLEDNLTLKQQLGLIAEE    soluble
MTKPVVDVKNVQKVYGKKGENQSHALKGVSFSIQEGEFVGIMGPSGSGKTTLLNVISTLDKATGGVVEIAGTDITKMKQGELSDFRSQKLGFIFQDFNLLENLSIYENIALPLSLQGVPSRNIGPKVEKVADMLGISAILQKYPSEVSGGQKQRSAAARALVHEPAIILGDEPTGALDSKNATSLLDAMTNLNQEQGVSIMMVTHDPFSASYCQRILFIQDGELYKEIHRGGTREEFYKEILDVLADLGTQKA    not soluble
MGSDKIHHHHHHMTTTIQALEKHLQVRLLNRTTRKISLTPDGAVYYDRTARILADVADIESSFHDAERGPRGQLRIDVPVSIGRLILIPRLRDFHARYPDIDLVIGLNDRPVDLVGEAVDCAIRVGELKDSSLIARRIGTFQCATAASPIYLEKYGEPTSIEDLQKNHKAIHFFSSRTGRNFDWDFVVDDLIKSVSVRGRVSVNDGDAYIDLALQGFGIIQGPRYMLTNHLESGLLKEVLPQWTPAPMPISAVYLQNRHLSLKVKVFVDWVAELFAGCPLLGGTALPFDQKCEFACDKETGHEYTIRTLVEQHNIAEAYTLKT    not soluble
